// reported IC50 for each item listed
target: CDK4-NanoLuc fusion with CCND1 in 293T or 293 cells (Homo sapiens)
Construct: host or cells: 293T (ATCC CRL-3216) or 293 (ATCC CRL-1573)
Sequence (P11802 whole entry, the tested form may be a part): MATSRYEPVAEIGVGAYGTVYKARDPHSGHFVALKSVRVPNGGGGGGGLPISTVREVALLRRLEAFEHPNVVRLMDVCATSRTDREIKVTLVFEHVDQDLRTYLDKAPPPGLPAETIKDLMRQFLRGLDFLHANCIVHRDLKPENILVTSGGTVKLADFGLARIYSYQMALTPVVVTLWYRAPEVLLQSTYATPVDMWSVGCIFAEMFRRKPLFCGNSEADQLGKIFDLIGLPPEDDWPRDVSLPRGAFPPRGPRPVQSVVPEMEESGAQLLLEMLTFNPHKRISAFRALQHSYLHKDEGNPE
Sequence (P24385 whole entry partner, the tested form may be a part): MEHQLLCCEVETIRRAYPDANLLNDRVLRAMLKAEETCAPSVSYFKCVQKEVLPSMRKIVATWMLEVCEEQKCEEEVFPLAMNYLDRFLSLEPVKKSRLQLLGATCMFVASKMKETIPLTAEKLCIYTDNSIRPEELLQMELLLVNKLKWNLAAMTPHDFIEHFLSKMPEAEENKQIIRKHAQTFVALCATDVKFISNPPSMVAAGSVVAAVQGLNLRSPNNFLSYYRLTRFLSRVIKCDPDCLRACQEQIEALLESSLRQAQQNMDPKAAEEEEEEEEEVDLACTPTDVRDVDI
testName: NanoBRET Target Engagement (TE) Intracellular Kinase Assay, CDK4/CCND1
Type: cell-based
testContext: NanoBRET TE intracellular kinase assay, 2-hour incubation, read-out: NanoBRET-CDK4/D1 IC50
quantityKind: IC50

compound: COc1cc(O)c(C=O)c2c1CC(C(=O)Nc1cc([C@H]3CC[C@@H](OC(=O)NN(C)CC(F)(F)F)C3)[nH]n1)C2 (single isomer, unassigned) [Compound 265]
target: CDK4-NanoLuc fusion with CCND1 in 293T or 293 cells (Homo sapiens)
assayResult: 132 nM
--
compound: COc1cc(O)c(C=O)c(OCC(=O)Nc2cc([C@H]3CC[C@@H](OC(=O)N4C5CCC4CC5)C3)[nH]n2)c1
target: CDK4-NanoLuc fusion with CCND1 in 293T or 293 cells (Homo sapiens)
assayResult: 1900 nM
--
compound: COc1cc(O)c(C=O)c(OCC(=O)Nc2cc([C@H]3CC[C@@H](OC(=O)N4CC5CC(C4)N5C)C3)[nH]n2)c1
target: CDK4-NanoLuc fusion with CCND1 in 293T or 293 cells (Homo sapiens)
assayResult: > 10000 nM
